Values compiled from PubChem BioAssay AID1963866.

System: PDC KRAS tumor spheroids with HUVEC/MSC, viability
Test: Anticancer human tumor 349418-098-R-PDC patient-derived lung adenocarcinoma cell line growth inhibition [KRAS2]
Conditions: second compound 0.1 µM; first compound 0.0316 µM; stronger effect = lower value
So basically, if viability, T/C comes in under 90% it's satisfied, and if it's 90% or more it's not satisfied.

Is it true that viability, T/C reported for Cn1nccc1Nc1nccc(-c2cc3c(s2)C(C)(C)N(CCN2CCOCC2)C3=O)n1 + C=CC(=O)N1CCN(c2nc(OCC3CCCN3C)nc3c2CCN(c2cccc4cccc(C)c24)C3)CC1CC#N is less than 90%?
satisfied

Given CN(C)C/C=C/C(=O)Nc1cc2c(Nc3ccc(F)c(Cl)c3)ncnc2cc1O[C@H]1CCOC1 + CNCc1ccccc1-c1csc(C(C)Nc2nc(C)nc3cc(OC)c(OC)cc23)c1 , is recorded viability, T/C strictly lower than 90%?
not satisfied

Lab note: viability, T/C threshold 90%. Does this compound come in strictly under it? COc1cc2nccc(Oc3ccc(NC(=O)C4(C(=O)Nc5ccc(F)cc5)CC4)cc3)c2cc1OC + COc1cc2nc(C)nc(NC(C)c3cc(N)cc(C(F)(F)F)c3)c2cc1OC1CCOC1
not satisfied

Lab note: viability, T/C threshold 90%. Does this compound come in strictly under it? CC(=O)Nc1cccc(-n2c(=O)n(C3CC3)c(=O)c3c(Nc4ccc(I)cc4F)n(C)c(=O)c(C)c32)c1 + CC1OCC2(CCN(c3cnc(Sc4ccnc(N)c4Cl)c(N)n3)CC2)C1N
satisfied

Strictly below 90%: is that where viability, T/C of CC1(C)CCC(CN2CCN(c3ccc(C(=O)NS(=O)(=O)c4ccc(NCC5CCOCC5)c([N+](=O)[O-])c4)c(Oc4cnc5[nH]ccc5c4)c3)CC2)=C(c2ccc(Cl)cc2)C1 + CC1OCC2(CCN(c3cnc(Sc4ccnc(N)c4Cl)c(N)n3)CC2)C1N sits?
not satisfied

Please check: viability, T/C for CC1(C)CCC(CN2CCN(c3ccc(C(=O)NS(=O)(=O)c4ccc(NCC5CCOCC5)c([N+](=O)[O-])c4)c(Oc4cnc5[nH]ccc5c4)c3)CC2)=C(c2ccc(Cl)cc2)C1 + COc1cc2nc(C)nc(NC(C)c3cc(N)cc(C(F)(F)F)c3)c2cc1OC1CCOC1 , strictly under 90% or not?
not satisfied

====

Tested on: PDC KRAS tumor spheroids with HUVEC/MSC, viability
Test: Anticancer human tumor 349418-098-R-PDC cell line growth inhibition [KRAS2];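 also: spheroids exposed to compounds for seven days before readout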
Conditions: second compound 0.316 µM; first compound 1 µM; stronger effect = lower value
Binarize viability, T/C at 20%; below is y, at or above is n.

Please determine if COc1cc2nccc(Oc3ccc(NC(=O)C4(C(=O)Nc5ccc(F)cc5)CC4)cc3)c2cc1OC + C=CC(=O)N1CCN(c2nc(OCC3CCCN3C)nc3c2CCN(c2cccc4cccc(C)c24)C3)CC1CC#N is below 20% in terms of viability, T/C.
n

Is viability, T/C strictly under 20% for the entry Cn1nccc1Nc1nccc(-c2cc3c(s2)C(C)(C)N(CCN2CCOCC2)C3=O)n1 + C=CC(=O)N1CCN(c2nc(=O)n(-c3c(C)ccnc3C(C)C)c3nc(-c4c(O)cccc4F)c(F)cc23)C(C)C1 ?
y

Below 20% on viability, T/C? Entry CCN1CCN(Cc2ccc(Nc3ncc(F)c(-c4cc(F)c5nc(C)n(C(C)C)c5c4)n3)nc2)CC1 + CC1OCC2(CCN(c3cnc(Sc4ccnc(N)c4Cl)c(N)n3)CC2)C1N
y

Determine whether this molecule shows viability, T/C lower than 20% (ties excluded): COc1cc(Nc2ncc3c(n2)-c2ccc(Cl)cc2C(c2c(F)cccc2OC)=NC3)ccc1C(=O)O + CNCc1ccccc1-c1csc(C(C)Nc2nc(C)nc3cc(OC)c(OC)cc23)c1
n

Record CC(=O)OC12COC1CC(O)C1(C)C(=O)C(O)C3=C(C)C(OC(=O)C(O)C(NC(=O)OC(C)(C)C)c4ccccc4)CC(O)(C(OC(=O)c4ccccc4)C21)C3(C)C (centres undefined) + CNCc1ccccc1-c1csc(C(C)Nc2nc(C)nc3cc(OC)c(OC)cc23)c1 : is its viability, T/C strictly below 20%?
n

Strictly below 20%: is that where viability, T/C of CC1OCC2(CCN(c3cnc(Sc4ccnc(N)c4Cl)c(N)n3)CC2)C1N (centres undefined) + CNCc1ccccc1-c1csc(C(C)Nc2nc(C)nc3cc(OC)c(OC)cc23)c1 sits?
n

Please check: viability, T/C for COc1cc2nccc(Oc3ccc(NC(=O)C4(C(=O)Nc5ccc(F)cc5)CC4)cc3)c2cc1OC + C=CC(=O)N1CCN(c2nc(=O)n(-c3c(C)ccnc3C(C)C)c3nc(-c4c(O)cccc4F)c(F)cc23)C(C)C1 , strictly under 20% or not?
n

Find out if reported viability, T/C for COc1cc(Nc2ncc3c(n2)-c2ccc(Cl)cc2C(c2c(F)cccc2OC)=NC3)ccc1C(=O)O + COc1cc2nc(C)nc(NC(C)c3cc(N)cc(C(F)(F)F)c3)c2cc1OC1CCOC1 is less than 20%
n

API: query returns whether the molecule falls strictly under 20% in viability, T/C. Query: CC1(C)CCC(CN2CCN(c3ccc(C(=O)NS(=O)(=O)c4ccc(NCC5CCOCC5)c([N+](=O)[O-])c4)c(Oc4cnc5[nH]ccc5c4)c3)CC2)=C(c2ccc(Cl)cc2)C1 + CNCc1ccccc1-c1csc(C(C)Nc2nc(C)nc3cc(OC)c(OC)cc23)c1
n

# check: viability, T/C < 20% for COc1cc2nccc(Oc3ccc(NC(=O)C4(C(=O)Nc5ccc(F)cc5)CC4)cc3)c2cc1OC + CNCc1ccccc1-c1csc(C(C)Nc2nc(C)nc3cc(OC)c(OC)cc23)c1
n

Confirm or reject: viability, T/C of COc1cc(Nc2ncc3c(n2)-c2ccc(Cl)cc2C(c2c(F)cccc2OC)=NC3)ccc1C(=O)O + C=CC(=O)N1CCN(c2nc(=O)n(-c3c(C)ccnc3C(C)C)c3nc(-c4c(O)cccc4F)c(F)cc23)C(C)C1 lies strictly below 20%
n

Given Cn1nccc1Nc1nccc(-c2cc3c(s2)C(C)(C)N(CCN2CCOCC2)C3=O)n1 + C=CC(=O)N1CCN(c2nc(OCC3CCCN3C)nc3c2CCN(c2cccc4cccc(C)c24)C3)CC1CC#N , is recorded viability, T/C strictly lower than 20%?
y

Answer whether the molecule CC(C)NCC(C(=O)N1CCN(c2ncnc3c2C(C)CC3O)CC1)c1ccc(Cl)cc1 (centres undefined) + COc1cc2nc(C)nc(NC(C)c3cc(N)cc(C(F)(F)F)c3)c2cc1OC1CCOC1 has viability, T/C strictly less than 20%
y

Is it true that viability, T/C reported for O=C(c1cc(Cc2n[nH]c(=O)c3ccccc23)ccc1F)N1CCN(C(=O)C2CC2)CC1 + C=CC(=O)N1CCN(c2nc(=O)n(-c3c(C)ccnc3C(C)C)c3nc(-c4c(O)cccc4F)c(F)cc23)C(C)C1 is less than 20%?
n
